- method_description: chemical genetic growth profiling, strain panel (AID 1159580);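 also: tested at 20 µM; growth read once vehicle control cultures reached saturation at 30 °C; lower values mean less growth of the strain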
- condition_details: S. cerevisiae deletion strains, growth OD, locus YOL012C, strain htz1
The whole screen tested about 5,500 compounds, of which about 2,000 (36%) were called active. About 18% were inconclusive and are not listed. Rule as the data show it: active = normalized growth mostly below about 0.91 (no sharp cut-off); inconclusive = no clear call, values can overlap the other calls; inactive = mostly above about 0.92. This is one part of the list.
Classes to choose from: yes for active, no for inactive

| compound | group |
| --- | --- |
| CC(=O)N[C@@H](CCC(=O)O)C(=O)O | no |
| C1N2CN3CN1CN(C2)C3 | no |
| C[C@]12C=CC(=O)C=C1CCC1C2[C@@H](O)C[C@@]2(C)C1CC[C@]2(O)C(=O)CO (stereo not given in full) | no |
| NC(N)=NCCN1CCCCCCC1 | no |
| COc1cc2c(cc1OC)C1(O)C(=O)c3ccc(O)c(C(=O)O)c3OC1CO2 (stereo not given) | no |

Assay result, entry CC(C)(S)[C@@H](N)C(=O)O — outcome? no

Assay result, entry Cc1cc(CC(=O)O)n(C)c1C(=O)c1ccc(Cl)cc1 — outcome? no

Assay result, entry COc1ccc2c(c1)OCC(Cc1ccc(OC)c(OC(C)=O)c1)C2=O (stereo not given) — outcome? no

Assay result, entry NC(C(=O)O)C(O)C(=O)O (stereo not given) — outcome? yes

Assay result, entry COC1C=CC23c4cc5c(cc4CN(CC2O)[C@@H]3C1)OCO5 (stereo not given in full) — outcome? no

Assay result, entry Clc1ccc(COC(Cn2ccnc2)c2ccc(Cl)cc2Cl)c(Cl)c1 (stereo not given) — outcome? yes

Assay result, entry CNc1ccc(C(=O)CC(O)CCC(C)C2OC(=O)CC(O)CC(=O)CC(O)CC(O)CC(O)CC(O)CC3(O)CC(O)C(C(=O)OC)C(CC(OC4OC(C)C(O)C(N)C4O)/C=C/C=C/C=C/C=C/C=C/C=C/C=C/C2C)O3)cc1 (stereo not given) — outcome? no

Assay result, entry CN(C)C(=O)Oc1ccc[n+](C)c1 — outcome? no

Assay result, entry Cc1cccc(C)c1NC(=O)C1CCCCN1C (stereo not given) — outcome? no

Assay result, entry Cc1cc(/C=C/c2ccc3cc(N(C)C)ccc3[n+]2C)c(C)n1-c1ccccc1 — outcome? no

Assay result, entry CCC(=O)OC1[C@@H]2CC3=C4CC(=O)O[C@@H](c5ccoc5)[C@]4(C)CCC3[C@@](C)(C2=O)[C@@H](CC(=O)OC)C1(C)C (stereo not given in full) — outcome? no

Assay result, entry Cc1ccc(C(=O)c2ccc(CC(=O)O)n2C)cc1 — outcome? no
